Format: physicochemical
Where a SMILES comes first, the peptide text is derived from it. Bridges are numbered along the chain shown (N, C = ends). [ ]: non-standard residue; d: D form. The star is where a group is joined. dPhe(4-NHCONH2) = NC(=O)Nc1ccc(C[C@@H](N)C(=O)O)cc1; Dihydroorotyl(S) = O=C1C[C@@H](C(=O)*)NC(=O)N1; Phe(4-Cl) = N[C@@H](Cc1ccc(Cl)cc1)C(=O)O; Phe(4-NH2) = Nc1ccc(C[C@H](N)C(=O)O)cc1; HYNIC = NNc1ccc(C(=O)*)cn1; Ahx = NCCCCCC(=O)O
The threshold is -2. Values of Log D (pH = 7.4) beneath it are tagged satisfied; values meeting or exceeding it are tagged not satisfied.

compound	class label
C[C@@H](O)[C@@H]1NC(=O)[C@H](CCCCN)NC(=O)[C@@H](Cc2c[nH]c3ccccc23)NC(=O)[C@H](Cc2ccc(O)cc2)NC(=O)[C@H](NC(=O)[C@H](Cc2ccc(Cl)cc2)NC(=O)c2ccc(NN)nc2)CSSC[C@@H](C(=O)N[C@H](Cc2ccc(O)cc2)C(N)=O)NC1=O [[^99mTc]Tc-HYNIC-SS01, metal not drawn]	satisfied
C[C@@H](O)[C@@H]1NC(=O)[C@H](CCCCN)NC(=O)[C@@H](Cc2ccc(NC(N)=O)cc2)NC(=O)[C@H](Cc2ccc(NC(=O)[C@@H]3CC(=O)NC(=O)N3)cc2)NC(=O)[C@H](NC(=O)[C@H](Cc2ccc(Cl)cc2)NC(=O)CCCCCNC(=O)c2ccc(NN)nc2)CSSC[C@@H](C(=O)N[C@H](Cc2ccc(O)cc2)C(N)=O)NC1=O [[^99mTc]Tc-HYNIC-Ahx-JR11, metal not drawn] ({HYNIC-Ahx}-[Phe(4-Cl)][dC][Phe(4-NH2)](Dihydroorotyl(S))[dPhe(4-NHCONH2)]KTC[dY]-NH2; disulfide 2-7)	satisfied

I wonder whether C[C@@H](O)[C@@H]1NC(=O)[C@H](CCCCN)NC(=O)[C@@H](Cc2ccc(NC(N)=O)cc2)NC(=O)[C@H](Cc2ccc(NC(=O)[C@@H]3CC(=O)NC(=O)N3)cc2)NC(=O)[C@H](NC(=O)[C@H](Cc2ccc(Cl)cc2)NC(=O)c2ccc(NN)nc2)CSSC[C@@H](C(=O)N[C@H](Cc2ccc(O)cc2)C(N)=O)NC1=O [[^99mTc]Tc-HYNIC-JR11, metal not drawn] ({HYNIC}-[Phe(4-Cl)][dC][Phe(4-NH2)](Dihydroorotyl(S))[dPhe(4-NHCONH2)]KTC[dY]-NH2; disulfide 2-7) has Log D (pH = 7.4) below -2. Can you tell?
satisfied

I wonder whether C[C@@H](O)[C@@H]1NC(=O)[C@H](CCCCN)NC(=O)[C@@H](Cc2c[nH]c3ccccc23)NC(=O)[C@H](Cc2ccc(O)cc2)NC(=O)[C@H](NC(=O)[C@H](Cc2ccc(Cl)cc2)NC(=O)CCNC(=O)c2ccc(NN)nc2)CSSC[C@@H](C(=O)N[C@H](Cc2ccc(O)cc2)C(N)=O)NC1=O [[^99mTc]Tc-HYNIC-β-Ala-SS01, metal not drawn] has Log D (pH = 7.4) below -2. Can you tell?
not satisfied

FYI, the data here is from paper PMC8065591.
